Experiment: Antioxidant activity assessed as H2O2 scavenging activity after 10 min by spectrophotometeric analysis
Format: functional
Experimental endpoint: IC50 (µg/mL)

[[record]]
compound = "CN(C)c1ccc(/C=C/C(=O)c2cc(O)ccc2O)cc1"
numeric_result = 153.85


a. O=C1/C(=C/c2ccc(Cl)cc2)Oc2cc(O)ccc21 [6-HYDROXY-4'-CHLORO AURONE]
b. COc1ccc(/C=C/C(=O)c2cc(O)ccc2O)cc1OC
Kindly compare a with b and tell me which has the lower IC50 figure. Answer by stating the label of the chosen item. b

1. O=C(/C=C/c1ccc(Cl)cc1)c1ccc(O)cc1O
2. COc1ccc(/C=C2\Oc3cc(O)ccc3C2=O)cc1OC
Kindly compare 1 with 2 and tell me which has the lower IC50 figure. Answer by stating the label of the chosen item. 1

A. COc1ccc(/C=C/C(=O)c2ccc(O)cc2O)cc1OC
B. CN(C)c1ccc(/C=C/C(=O)c2ccc(O)cc2O)cc1
Kindly compare A with B and tell me which has the lower IC50 figure. Answer by stating the label of the chosen item. A
(A: 70.1 µg/mL, B: 135.88 µg/mL)

a. COc1ccc(/C=C2\Oc3ccc(O)cc3C2=O)cc1OC [5-HYDROXY-3',4'-DIMETHOXY AURONE]
b. O=C1O[C@H]([C@@H](O)CO)C(O)=C1O
Kindly compare a with b and tell me which has the lower IC50 figure. Answer by stating the label of the chosen item. a
(a: 206.57 µg/mL, b: 445.92 µg/mL)
